Values were extracted from patent US11485726B2.

- measured_target: ALK kinase (Homo sapiens, UniProt Q9UM73)
- Sequence (Q9UM73 with tags, fused parts or gaps): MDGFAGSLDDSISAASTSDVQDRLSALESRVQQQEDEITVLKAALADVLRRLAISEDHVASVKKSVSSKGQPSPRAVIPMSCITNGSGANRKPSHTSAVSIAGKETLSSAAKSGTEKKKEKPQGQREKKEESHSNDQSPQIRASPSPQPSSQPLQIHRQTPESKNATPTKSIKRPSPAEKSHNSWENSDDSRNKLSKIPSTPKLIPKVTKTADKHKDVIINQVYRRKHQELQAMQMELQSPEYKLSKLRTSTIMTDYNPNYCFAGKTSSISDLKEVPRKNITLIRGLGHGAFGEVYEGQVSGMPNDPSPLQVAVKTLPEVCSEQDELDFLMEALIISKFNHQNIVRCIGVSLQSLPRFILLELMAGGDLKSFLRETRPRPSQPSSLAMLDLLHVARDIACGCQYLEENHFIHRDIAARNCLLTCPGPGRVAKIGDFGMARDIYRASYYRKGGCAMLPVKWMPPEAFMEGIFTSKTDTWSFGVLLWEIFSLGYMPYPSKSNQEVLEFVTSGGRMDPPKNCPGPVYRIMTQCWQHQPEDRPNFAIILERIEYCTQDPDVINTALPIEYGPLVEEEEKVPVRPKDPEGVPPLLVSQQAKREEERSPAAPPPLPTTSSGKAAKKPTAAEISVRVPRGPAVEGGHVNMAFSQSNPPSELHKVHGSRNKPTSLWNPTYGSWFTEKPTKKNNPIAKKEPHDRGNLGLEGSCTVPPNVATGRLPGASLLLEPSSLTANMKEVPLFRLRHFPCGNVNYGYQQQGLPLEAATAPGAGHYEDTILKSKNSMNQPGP
- test_name: ALK protein degradation activity by Western blot in H2228 cells
- Format: cell-based
- Parameters: H2228 cell lines (human non-small cell line lung cancer cells, available from ATCC); host or cells: H2228 (human non-small cell lung cancer cells); the other entry of the earlier key: EML4 (Q9HC35, Echinoderm microtubule-associated protein-like 4)
- run_parameters: NCI-H2228, compound 1 μM, treatment for 24 hours, degradation rate by Western blot
Measured inhibition at 1 µM values are reported for all entries that follow.

molecule	result
Cc1cc(Nc2ncc(Cl)c(Nc3ccccc3S(=O)(=O)C(C)C)n2)c(OC(C)C)cc1C1CCN(CCCNc2cccc3c2C(=O)N(C2CCC(=O)NC2=O)C3=O)CC1 (centres unmarked) [Compound 30]	50 to 90%
Cc1cc(Nc2ncc(Cl)c(Nc3ccccc3S(=O)(=O)C(C)C)n2)c(OC(C)C)cc1C1CCN(CCOCCOCCOCCNc2cccc3c2C(=O)N(C2CCC(=O)NC2=O)C3=O)CC1 (centres unmarked) [Compound 14]	> 90%
Cc1cc(Nc2ncc(Cl)c(Nc3ccccc3S(=O)(=O)C(C)C)n2)c(OC(C)C)cc1C1CCN(CCCCCNc2cccc3c2C(=O)N(C2CCC(=O)NC2=O)C3=O)CC1 (centres unmarked) [Compound 28]	> 90%
Cc1cc(Nc2ncc(Cl)c(Nc3ccccc3S(=O)(=O)C(C)C)n2)c(OC(C)C)cc1C1CCN(CCCCCOc2cccc3c2C(=O)N(C2CCC(=O)NC2=O)C3=O)CC1 (centres unmarked) [Compound 22]	50 to 90%

Sure, the documented inhibition at 1 µM for Cc1cc(Nc2ncc(Cl)c(Nc3ccccc3S(=O)(=O)C(C)C)n2)c(OC(C)C)cc1C1CCN(S(=O)(=O)CCCCCOc2cccc3c2C(=O)N(C2CCC(=O)NC2=O)C3=O)CC1 (centres unmarked) [Compound 13] is > 90%

---

- measured_target: ALK kinase (Homo sapiens, UniProt Q9UM73)
- test_name: ALK protein degradation activity by Western blot in H2228 cells
- Type: cell-based
- Design: H2228 cell lines (human non-small cell line lung cancer cells, available from ATCC); host or cells: H2228 (human non-small cell lung cancer cells); the other entry of the earlier key: EML4 (Q9HC35, Echinoderm microtubule-associated protein-like 4)
- run_parameters: NCI-H2228, compound 1 μM, treatment for 24 hours, degradation rate by Western blot
As shown below, each of these compounds has a reported inhibition at 1 µM value.

compound	value_kind	result
Cc1cc(Nc2ncc(Cl)c(Nc3ccccc3S(=O)(=O)C(C)C)n2)c(OC(C)C)cc1C1CCN(CCCCOc2cccc3c2C(=O)N(C2CCC(=O)NC2=O)C3=O)CC1 (centres unmarked)	inhibition at 1 µM	50 to 90%
Cc1cc(Nc2ncc(Cl)c(Nc3ccccc3S(=O)(=O)C(C)C)n2)c(OC(C)C)cc1C1CCN(CCOCCOc2cccc3c2C(=O)N(C2CCC(=O)NC2=O)C3=O)CC1 (centres unmarked)	inhibition at 1 µM	50 to 90%
Cc1cc(Nc2ncc(Cl)c(Nc3ccccc3S(=O)(=O)C(C)C)n2)c(OC(C)C)cc1C1CCN(CC(=O)NCCOCCOCCOCCOCCOCCOc2cccc3c2C(=O)N(C2CCC(=O)NC2=O)C3=O)CC1 (centres unmarked)	inhibition at 1 µM	50 to 90%
Cc1cc(Nc2ncc(Cl)c(Nc3ccccc3S(=O)(=O)C(C)C)n2)c(OC(C)C)cc1C1CCN(C(=O)COCCOCCNc2cccc3c2C(=O)N(C2CCC(=O)NC2=O)C3=O)CC1 (centres unmarked)	inhibition at 1 µM	> 90%

Query Cc1cc(Nc2ncc(Cl)c(Nc3ccccc3S(=O)(=O)C(C)C)n2)c(OC(C)C)cc1C1CCN(CCOCCOCCOCCOCCNc2cccc3c2C(=O)N(C2CCC(=O)NC2=O)C3=O)CC1 (centres unmarked) yields inhibition at 1 µM of > 90%
